target: succinate dehydrogenase/complex II (SDH) (Rattus norvegicus, UniProt P21913+Q641Z9+Q6PCT8+Q920L2); construct: freshly isolated muscle mitochondria were assayed; from tissue; host or cells: rat skeletal muscle mitochondria (Wistar, Harlan Laboratories); assay: High-throughput screen: ROS production from succinate dehydrogenase/complex II (SDH); assay type: biochemical; conditions: Table 9; percent change in ROS from DMSO controls
Sequence (Q920L2 35-656): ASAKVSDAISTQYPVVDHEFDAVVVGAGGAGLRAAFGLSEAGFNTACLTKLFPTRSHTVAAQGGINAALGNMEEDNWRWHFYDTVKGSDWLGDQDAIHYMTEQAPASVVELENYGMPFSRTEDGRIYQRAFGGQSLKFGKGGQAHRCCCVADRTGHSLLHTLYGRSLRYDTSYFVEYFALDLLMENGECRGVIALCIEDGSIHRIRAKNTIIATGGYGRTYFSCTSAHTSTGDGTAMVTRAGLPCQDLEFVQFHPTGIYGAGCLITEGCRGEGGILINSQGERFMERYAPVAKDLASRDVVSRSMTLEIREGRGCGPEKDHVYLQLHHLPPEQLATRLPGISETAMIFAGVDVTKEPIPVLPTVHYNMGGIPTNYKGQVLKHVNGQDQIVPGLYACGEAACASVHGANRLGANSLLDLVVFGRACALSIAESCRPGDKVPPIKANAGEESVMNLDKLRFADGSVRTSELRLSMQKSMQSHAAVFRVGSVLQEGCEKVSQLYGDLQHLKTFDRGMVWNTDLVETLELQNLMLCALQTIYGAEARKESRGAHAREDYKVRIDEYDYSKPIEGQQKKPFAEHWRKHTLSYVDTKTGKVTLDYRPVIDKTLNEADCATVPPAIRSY
Sequence (P21913 31-282): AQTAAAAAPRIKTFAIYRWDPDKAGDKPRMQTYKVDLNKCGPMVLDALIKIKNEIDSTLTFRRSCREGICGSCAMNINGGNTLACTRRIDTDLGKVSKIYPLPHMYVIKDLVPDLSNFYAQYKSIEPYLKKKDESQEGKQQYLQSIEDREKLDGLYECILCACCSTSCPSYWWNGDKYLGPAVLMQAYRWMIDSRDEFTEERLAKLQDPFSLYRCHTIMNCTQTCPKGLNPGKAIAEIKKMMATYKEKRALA
Sequence (Q641Z9 30-169 limits assumed): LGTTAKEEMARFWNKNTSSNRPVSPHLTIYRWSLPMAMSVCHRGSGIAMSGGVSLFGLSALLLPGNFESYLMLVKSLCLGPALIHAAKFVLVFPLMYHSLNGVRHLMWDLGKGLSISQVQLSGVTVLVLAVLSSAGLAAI
Sequence (Q6PCT8 57-159): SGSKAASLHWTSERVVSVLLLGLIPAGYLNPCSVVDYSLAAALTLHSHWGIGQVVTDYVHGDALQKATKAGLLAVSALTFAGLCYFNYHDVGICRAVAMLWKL
Label rule, in plain words: SDH of -0.2 and up is Criterion met, under -0.2 is Criterion not met.

Here's what some known entries look like.
>>> category("O=[N+]([O-])c1ccc(Oc2ccc(S(=O)(=O)NC3CCCCC3)cc2)cc1")
"Criterion met"
>>> category("Cc1ccc(CCSc2ccc(F)cc2)cn1")
"Criterion met"
>>> category("O=C(Nc1ccccc1C(=O)O)c1ccccc1")
"Criterion not met"

# input for lookup
Record `O=[N+]([O-])c1ccc(Oc2ccc(S(=O)(=O)Nc3ccc(F)cc3)cc2)cc1` ; criterion: SDH no lower than -0.2. Met?
Criterion met

* * *

Give inhibition at 2.5 µM for every item shown.
biological target: flavin binding site of complex I (IF) (Rattus norvegicus); construct: freshly isolated muscle mitochondria were assayed; from tissue; host or cells: rat skeletal muscle mitochondria (Wistar, Harlan Laboratories); assay: High-throughput screen: ROS production from flavin binding site of complex I (IF); format: biochemical; settings: Table 7; percent change in ROS from DMSO controls; read-out: IF
Sequence (Q5XIH3 21-464 limits assumed, one chain of several): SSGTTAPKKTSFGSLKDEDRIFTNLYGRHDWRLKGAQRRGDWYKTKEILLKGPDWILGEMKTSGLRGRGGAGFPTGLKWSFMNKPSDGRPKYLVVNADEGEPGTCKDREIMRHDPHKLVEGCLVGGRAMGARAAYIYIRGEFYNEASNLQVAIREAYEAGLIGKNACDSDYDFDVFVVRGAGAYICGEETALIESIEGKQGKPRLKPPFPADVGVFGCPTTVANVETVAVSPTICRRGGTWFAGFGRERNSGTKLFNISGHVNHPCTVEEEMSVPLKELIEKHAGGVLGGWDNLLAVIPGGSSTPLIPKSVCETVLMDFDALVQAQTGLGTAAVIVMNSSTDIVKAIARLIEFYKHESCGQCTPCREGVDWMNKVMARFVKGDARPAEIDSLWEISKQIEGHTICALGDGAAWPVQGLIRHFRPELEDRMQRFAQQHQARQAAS
Numbers only, in %.

Example compounds with recorded inhibition at 2.5 µM:
>>> readout_number("CCCCN(Cc1ccccc1)Cc1cc(Cl)cc(Cl)c1O")
1.8
>>> readout_number("O=C(O)CCC(=O)Nc1ccc(-c2nc3cc4ccccc4cc3[nH]2)cc1")
4.8
>>> readout_number("CCN1CCN(C2CCC(C(C)(C)C)CC2)CC1 (stereo not shown)")
22.1
>>> readout_number("Fc1ccc(SCCc2ccccn2)cc1")
2.6
>>> readout_number("COc1ccc(-c2ccccc2)cc1NCC1=CC[C@H]2C[C@@H]1C2(C)C")
-6.6
>>> readout_number("Cc1ccc(S(=O)(=O)Nc2nnc(C)s2)cc1")
19.6
>>> readout_number("Cc1ccc(NS(=O)(=O)c2ccc(C3CCCCC3)cc2)cc1")
-3.6
>>> readout_number("O=C(O)CCC(=O)Nc1cccc(-c2nc3ccccc3[nH]2)c1")
4.2
>>> readout_number("Cl.OC12CCCCC1C(c1cccc(Cl)c1)NCC2 (stereo not shown)")
-5.5

inhibition at 2.5 µM for `Cc1cc(C)c(S(=O)(=O)N2CCCC2=O)c(C)c1` is -1.8

* * *

molecular target: glycerol-3-phosphate dehydrogenase (GPDH) (Rattus norvegicus); construct: The activity of GPDH in intact mitochondria (0.3 mg/mL) was measured; from tissue; host or cells: rat skeletal muscle mitochondria (Wistar, Harlan Laboratories); assay: High-throughput screen: ROS production from glycerol-3-phosphate dehydrogenase (GPDH); type: biochemical; details: Table 9; percent change in ROS from DMSO controls
Response field class: enum, chosen by comparing GPDH against group 1: < -4; group 2: ≥ -4 and < -0.6; group 3: ≥ -0.6

Here's what some known entries look like.
>>> category("Cc1ccc(C(C)C)c(OCC(O)CN2CCN(Cc3ccccc3)CC2)c1.Cl.Cl (stereo not drawn)")
"group 2"
>>> category("O=C(O)CSc1cccc(C(=O)Nc2ccc(Br)cc2)c1")
"group 1"
>>> category("Oc1nnc(Cc2ccncc2)c2ccccc12")
"group 3"
>>> category("O=C(COc1ccc(Cl)cc1Cl)Nc1ccc(F)cc1F")
"group 2"

# input for lookup
Which GPDH band matches `Fc1ccc(SCCc2ccccn2)cc1` ?
group 3

* * *

molecular target: flavin binding site of complex I (IF) (Rattus norvegicus); construct: freshly isolated muscle mitochondria were assayed; from tissue; host or cells: rat skeletal muscle mitochondria (Wistar, Harlan Laboratories); experiment: High-throughput screen: ROS production from flavin binding site of complex I (IF); type: biochemical; details: Table 7; percent change in ROS from DMSO controls; read-out: IF
EXPERIMENTAL_ENDPOINT: inhibition at 2.5 µM (%)
One number for each entry, in %.

Example compounds with recorded inhibition at 2.5 µM:
>>> readout_number("O=C(O)/C=C/C(=O)Nc1ccc(/C=C/c2ccccc2)cc1")
-1
>>> readout_number("O=C(COc1ccc(Cl)cc1Cl)Nc1ccc(F)cc1F")
19.8
>>> readout_number("Cc1ccc(C)c(CN(CCCN(C)C)CCCN(C)C)c1")
28.8
>>> readout_number("COc1cc(CN(CCN(C)C)Cc2ccccc2)cc(OC)c1")
7.6
>>> readout_number("Cc1ccccc1NS(=O)(=O)c1ccc(C2CCCCC2)cc1")
-0.4
>>> readout_number("Cc1ccc2[nH]c(-c3ccc(NC(=O)CCC(=O)O)cc3)nc2c1")
2.2
>>> readout_number("Fc1ccc(N2CCN(CC(c3ccccc3)c3ccccc3)CC2)cc1")
0.9
>>> readout_number("C=C(C)C(=O)Nc1ccc(-c2nc3ccccc3[nH]2)cc1")
-0.3

Below are 5 compounds. Give each one its inhibition at 2.5 µM.
1. COc1ccc(/C=C2\C(=O)NC(=S)N(c3ccccc3)C2=O)cc1Br
2. CCN(CC)CCN(CC)Cc1ccc(Cl)cc1Cl
3. CCCN(CCO)Cc1ccc2c(c1)c1ccccc1n2CC
4. CCOc1ccc(C(=O)Nc2ccc(-c3nc4ccccc4[nH]3)cc2)cc1
5. CCCCN(Cc1ccccc1)Cc1cccc(Oc2ccc(Cl)cc2)c1

[2.2, 19.7, 27.6, 3.8, -3.1]

* * *

Give inhibition at 2.5 µM for every item shown.
biological target: outer ubiquinone binding site of complex III (IIIQO) (Rattus norvegicus, UniProt P00159+P20788); construct: freshly isolated muscle mitochondria were assayed; from tissue; host or cells: rat skeletal muscle mitochondria (Wistar, Harlan Laboratories); test: High-throughput screen: ROS production from outer ubiquinone binding site of complex III (IIIQO); type: biochemical; settings: Table 7; percent change in ROS from DMSO controls; read-out: IIIQO
Numbers only, in %.

Example compounds with recorded inhibition at 2.5 µM:
>>> readout_number("Fc1ccc(SCCc2ccccn2)cc1 [Compound 42]")
24.1
>>> readout_number("CCCCN(Cc1ccccc1)Cc1cccc(Oc2ccc(Cl)cc2)c1 [Compound 44]")
23.1
>>> readout_number("O=C(O)CCC(=O)Nc1ccc(Cl)cc1 [Compound 58]")
-0.8
>>> readout_number("CN(C)CCN(Cc1ccccc1)Cc1ccc(C(F)(F)F)cc1 [Compound 29]")
3.2
>>> readout_number("COc1cc(CN(CCN(C)C)Cc2ccccc2)cc(OC)c1 [Compound 31]")
1.4
>>> readout_number("O=C(O)CCC(=O)Nc1cccc(-c2nc3ccccc3[nH]2)c1 [Compound 60]")
-1.1
>>> readout_number("O=C(O)/C=C/C(=O)Nc1ccc(/C=C/c2ccccc2)cc1 [Compound 49]")
-10
>>> readout_number("O=C(O)CCC(=O)Nc1ccc(-c2nc3cc4ccccc4cc3[nH]2)cc1 [Compound 61]")
2.4
>>> readout_number("Cc1ccc(NS(=O)(=O)c2ccc(C3CCCCC3)cc2)cc1 [Compound 6]")
3.4

--- query ---
inhibition at 2.5 µM for Cc1ccccc1NS(=O)(=O)c1ccc(C2CCCCC2)cc1 [Compound 9] is 2.7

* * *

Give inhibition for every item shown.
target: glycerol-3-phosphate dehydrogenase (GPDH) (Rattus norvegicus, UniProt P35571); construct: The activity of GPDH in intact mitochondria (0.3 mg/mL) was measured; from tissue; host or cells: rat skeletal muscle mitochondria (Wistar, Harlan Laboratories); assay: High-throughput screen: ROS production from glycerol-3-phosphate dehydrogenase (GPDH); type: biochemical; parameters: dose or concentration left out as unconfirmed; conditions: Table 8; percent change in ROS from DMSO controls
Sequence (P35571 43-727): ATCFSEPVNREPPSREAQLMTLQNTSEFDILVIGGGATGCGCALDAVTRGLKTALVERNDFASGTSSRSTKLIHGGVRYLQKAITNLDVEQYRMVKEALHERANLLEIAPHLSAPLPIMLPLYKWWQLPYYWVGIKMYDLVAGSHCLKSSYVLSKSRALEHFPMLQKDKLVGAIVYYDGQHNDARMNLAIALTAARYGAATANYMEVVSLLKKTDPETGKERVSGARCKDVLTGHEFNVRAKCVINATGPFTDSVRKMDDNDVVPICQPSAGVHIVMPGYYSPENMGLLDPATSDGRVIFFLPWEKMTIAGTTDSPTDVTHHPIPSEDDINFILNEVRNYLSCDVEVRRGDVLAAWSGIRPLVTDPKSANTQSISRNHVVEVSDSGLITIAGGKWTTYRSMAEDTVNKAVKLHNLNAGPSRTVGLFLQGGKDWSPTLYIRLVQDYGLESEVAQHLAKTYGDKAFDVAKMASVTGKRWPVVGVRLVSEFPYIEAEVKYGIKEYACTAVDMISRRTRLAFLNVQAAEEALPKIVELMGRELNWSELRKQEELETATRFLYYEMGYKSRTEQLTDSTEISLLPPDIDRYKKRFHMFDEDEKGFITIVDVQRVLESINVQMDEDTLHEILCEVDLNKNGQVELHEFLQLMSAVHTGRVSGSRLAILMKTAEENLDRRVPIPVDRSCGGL
One number for each entry, in %.

Example molecules with recorded inhibition:
>>> readout_number("Clc1ccc(N2CCN(CC(c3ccccc3)c3ccccc3)CC2)cc1 [Compound 83]")
3
>>> readout_number("c1ccc(C2CCC(Nc3ccc4c(c3)OCO4)CC2)cc1 (stereo not shown) [Compound 77]")
-1
>>> readout_number("Clc1ccc(C(NC2CCN(Cc3ccccc3)CC2)c2ccccc2)cc1 (stereo not shown) [Compound 78]")
6

Below are 4 molecules. Give each one its inhibition.
1. COc1ccc(NC(=S)NC(=O)c2ccco2)cc1 [Compound 75]
2. O=C(Nc1nn[nH]n1)C1CCCCC1 [Compound 76]
3. CN(C)c1ccc(C(=C2CN3CCC2CC3)c2ccc(N(C)C)cc2)cc1 [Compound 81]
4. CCC1CCCCN1C/C=C/c1ccc(N(C)C)cc1 (stereo not shown) [Compound 80]

[16, 0, 13, 11]

* * *

target: glycerol-3-phosphate dehydrogenase (GPDH) (Rattus norvegicus, UniProt P35571); construct: The activity of GPDH in intact mitochondria (0.3 mg/mL) was measured; from tissue; host or cells: rat skeletal muscle mitochondria (Wistar, Harlan Laboratories); experiment: High-throughput screen: ROS production from glycerol-3-phosphate dehydrogenase (GPDH); assay type: biochemical; design: dose or concentration left out as unconfirmed; details: Table 7; percent change in ROS from DMSO controls
EXPERIMENTAL_ENDPOINT: inhibition (%)
Answers are plain numbers, in %.

Example molecules with recorded inhibition:
>>> readout_number("CC1=CC(C)C(C2OCC(CN3CCCCC3)O2)C(C)C1 (stereo not shown)")
1.2
>>> readout_number("O=C(O)/C=C/C(=O)Nc1ccc(/C=C/c2ccccc2)cc1")
12.7
>>> readout_number("CCN(CC)CCN(CC)Cc1ccc(Cl)cc1Cl")
2.5

Below are 6 molecules. Give each one its inhibition.
1. CC(C)(C)C1=NN(c2c(Cl)cc(Cl)cc2Cl)C(=O)C1
2. c1ccc2[nH]c(-c3ccc(-c4nc5ccccc5[nH]4)cc3)nc2c1
3. COc1ccc(NS(=O)(=O)c2cccc(C(=O)Nc3ccc(C)cc3)c2)cc1
4. Cc1ccc2[nH]c(-c3ccc(NC(=O)CCC(=O)O)cc3)nc2c1
5. COc1cc(CN(CCN(C)C)Cc2ccccc2)cc(OC)c1
6. CCN1CCN(C/C=C/c2ccc(N(C)C)cc2)CC1

1: 0.1; 2: -1.5; 3: 5; 4: 0; 5: -0.5; 6: 13.4
